target.under.test: G2019S human LRRK2, catalytic site (Homo sapiens, UniProt Q5S007, G2019S)
Construct: G2019S human LRRK2, catalytic site
Sequence (Q5S007 970-2527 G2019S limits assumed): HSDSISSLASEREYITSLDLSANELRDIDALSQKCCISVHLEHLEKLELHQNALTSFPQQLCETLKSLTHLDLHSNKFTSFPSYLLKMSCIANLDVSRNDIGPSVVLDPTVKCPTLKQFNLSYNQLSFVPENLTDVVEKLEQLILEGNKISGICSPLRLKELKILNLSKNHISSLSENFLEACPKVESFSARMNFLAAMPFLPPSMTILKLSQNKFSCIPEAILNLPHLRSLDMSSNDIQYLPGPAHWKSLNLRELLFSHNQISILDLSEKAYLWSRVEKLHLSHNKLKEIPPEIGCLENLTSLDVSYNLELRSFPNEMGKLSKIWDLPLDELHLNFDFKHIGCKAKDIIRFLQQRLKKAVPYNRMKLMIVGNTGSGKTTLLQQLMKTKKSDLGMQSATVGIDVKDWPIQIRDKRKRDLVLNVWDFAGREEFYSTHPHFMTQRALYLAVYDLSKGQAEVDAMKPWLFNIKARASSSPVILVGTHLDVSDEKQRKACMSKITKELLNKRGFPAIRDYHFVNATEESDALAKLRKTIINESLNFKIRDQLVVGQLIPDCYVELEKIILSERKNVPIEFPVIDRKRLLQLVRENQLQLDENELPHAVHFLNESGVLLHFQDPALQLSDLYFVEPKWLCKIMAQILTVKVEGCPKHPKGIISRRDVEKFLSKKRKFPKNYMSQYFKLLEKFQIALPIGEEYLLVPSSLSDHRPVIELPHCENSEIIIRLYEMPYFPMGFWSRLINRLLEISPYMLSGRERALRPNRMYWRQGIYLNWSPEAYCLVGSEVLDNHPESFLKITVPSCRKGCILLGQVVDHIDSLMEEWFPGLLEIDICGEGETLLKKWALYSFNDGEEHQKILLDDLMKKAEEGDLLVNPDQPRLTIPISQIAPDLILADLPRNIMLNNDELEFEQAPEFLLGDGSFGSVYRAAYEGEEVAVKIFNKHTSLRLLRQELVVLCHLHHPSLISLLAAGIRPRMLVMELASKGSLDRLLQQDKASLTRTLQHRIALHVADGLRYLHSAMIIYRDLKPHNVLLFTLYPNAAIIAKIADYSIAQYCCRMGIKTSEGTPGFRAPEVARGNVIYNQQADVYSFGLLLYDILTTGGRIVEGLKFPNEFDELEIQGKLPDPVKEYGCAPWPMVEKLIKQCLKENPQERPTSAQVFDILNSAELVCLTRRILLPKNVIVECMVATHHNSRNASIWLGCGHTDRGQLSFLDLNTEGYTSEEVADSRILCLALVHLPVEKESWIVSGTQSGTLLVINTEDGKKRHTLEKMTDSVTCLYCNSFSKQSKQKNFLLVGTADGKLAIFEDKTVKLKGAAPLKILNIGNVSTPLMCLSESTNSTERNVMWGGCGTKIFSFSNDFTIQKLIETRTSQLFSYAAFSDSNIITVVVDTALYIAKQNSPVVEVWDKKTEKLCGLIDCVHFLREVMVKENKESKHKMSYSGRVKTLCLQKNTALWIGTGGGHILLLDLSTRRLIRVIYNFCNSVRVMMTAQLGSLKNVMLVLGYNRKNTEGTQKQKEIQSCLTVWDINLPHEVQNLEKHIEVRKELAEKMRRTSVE
method.summary: TR-FRET LanthaScreen Eu Kinase Binding Assay, LRRK2 G2019S
experimental.conditions: LRRK2(G2019); one range stated for wt and G2019; read-out: IC50, Activity Toward LRRK2(G2019)
Reported IC50 by item:

The following compounds have reported results that may help.
INSERT INTO measurements (structure_smiles_string, target_under_test, result) VALUES
  ('COCc1nc(C(F)(F)F)nn1-c1ccc(Nc2cn(-c3c(F)cccc3F)nc2C(N)=O)cc1', 'G2019S human LRRK2, catalytic site (Homo sapiens, UniProt Q5S007, G2019S)', '100 to 1000 nM'),
  ('CCn1cnnc1-c1ccc(Nc2cn(-c3c(Cl)cccc3Cl)nc2C(N)=O)cc1', 'G2019S human LRRK2, catalytic site (Homo sapiens, UniProt Q5S007, G2019S)', '100 to 1000 nM'),
  ('NC(=O)c1nn(-c2c(F)cccc2Cl)cc1Nc1ccc(C(=O)N2CCOCC2)cn1', 'G2019S human LRRK2, catalytic site (Homo sapiens, UniProt Q5S007, G2019S)', '100 to 1000 nM');

Entry NC(=O)c1nn(-c2c(Cl)cccc2Cl)cc1Nc1ccc(C(=O)N2CC(O)C2)cc1 needs its IC50 filled in; supply it. 100 to 1000 nM

Source: patent US20230373985A1
